// relative viability lookup, one value per entry
Test system: A204
TEST_DETAILS: relative viability vs DMSO control (72 h) (fraction); higher = more viable cells
APPLIED_CONDITIONS: 0.04115 µM
The answer should be a number; do not append a unit.

CCCS(=O)(=O)N[C@H]1C[C@@H](N(C)c2ncnc3[nH]ccc23)C1 | 1.07

Item: Cc1cn(-c2cc(NC(=O)c3ccc(C)c(Nc4nccc(-c5cnccn5)n4)c3)cc(C(F)(F)F)c2)cn1 Test system: A204 Read-out: relative viability Value: ?
1.13

Item: COc1cc(OC)cc(N(CCNC(C)C)c2ccc3ncc(-c4cnn(C)c4)nc3c2)c1 Test system: A204 Read-out: relative viability Value: ?
0.595

Item: NC(=O)c1cccc2cn(-c3ccc([C@@H]4CCCNC4)cc3)nc12 Test system: A204 Read-out: relative viability Value: ?
1.07

Item: COc1cc(Nc2c(C#N)cnc3cc(OCCCN4CCN(C)CC4)c(OC)cc23)c(Cl)cc1Cl Test system: A204 Read-out: relative viability Value: ?
1.21

Item: Cc1ccc(C(=O)OCc2ccc([C@@H](CN)C(=O)Nc3ccc4cnccc4c3)cc2)c(C)c1 Test system: A204 Read-out: relative viability Value: ?
0.963

Item: C[C@@H]1COC(Nc2ccc3ncnc(Nc4ccc(OCc5nccs5)c(Cl)c4)c3c2)=N1 Test system: A204 Read-out: relative viability Value: ?
1.11

---

// relative viability lookup, one value per entry
System: VA-ES-BJ
TEST_DETAILS: relative viability vs DMSO control (72 h) (fraction); higher = more viable cells
APPLIED_CONDITIONS: 0.00051 µM
The answer should be a number; do not append a unit.

In the examples that follow, each entry is paired with its recorded relative viability.
Cc1nc(Nc2ncc(C(=O)Nc3c(C)cccc3Cl)s2)cc(N2CCN(CCO)CC2)n1 | 1.04
FC(F)(F)c1ccc(CNc2ccc(Cc3c[nH]c4ncc(Cl)cc34)cn2)cn1 | 1.07
COc1cc2ncnc(Nc3cccc(Cl)c3F)c2cc1OC(=O)N1CCN(C)C[C@H]1C | 1.05

So what's the measured relative viability for this one? Cc1ccc(NC(=O)c2ccc(CN3CCN(C)CC3)cc2)cc1Nc1nccc(-c2cccnc2)n1
1.03

So what's the measured relative viability for this one? CO[C@@H]1[C@H](N(C)C(=O)c2ccccc2)C[C@H]2O[C@]1(C)n1c3ccccc3c3c4c(c5c6ccccc6n2c5c31)C(=O)NC4
0.943

---

System: SW1353
TEST_DETAILS: relative viability vs DMSO control (72 h) (fraction); higher = more viable cells
APPLIED_CONDITIONS: 0.1235 µM
PROPERTY_LABEL: relative viability
The answer should be a number; do not append a unit.

C[C@@H](Oc1cc(-c2cnn(C3CCNCC3)c2)cnc1N)c1c(Cl)ccc(F)c1Cl [Crizotinib] | 1.03
C[C@H]1Oc2cc(cnc2N)-c2c(nn(C)c2C#N)CN(C)C(=O)c2ccc(F)cc21 [Lorlatinib] | 0.976
CC[C@@H]1C(=O)N(C)c2cnc(Nc3ccc(C(=O)N[C@H]4CC[C@H](N5CCN(CC6CC6)CC5)CC4)cc3OC)nc2N1C(C)C [Volasertib] | 0.635

Shift focus to the following entry.
So what's the measured relative viability for this one? N#Cc1ccnc(N2C(=O)CC[C@H]2C(=O)N(c2cncc(F)c2)[C@H](C(=O)NC2CC(F)(F)C2)c2ccccc2Cl)c1 [Ivosidenib]
0.949

---

// relative viability lookup, one value per entry
Tested on: RD
TEST_DETAILS: relative viability vs DMSO control (72 h) (fraction); higher = more viable cells
APPLIED_CONDITIONS: 10 µM
The answer should be a number; do not append a unit.

Item: NC(=O)c1cnc2[nH]ccc2c1N[C@@H]1[C@@H]2CC3C[C@H]1C[C@@](O)(C3)C2 [Peficitinib] Test system: RD Read-out: relative viability Value: ?
1.01

Item: CCCCCCCCCCCCCCCCCCOP(=O)([O-])OC1CC[N+](C)(C)CC1 [Perifosine] Test system: RD Read-out: relative viability Value: ?
0.997

---

Test system: SYO-1
TEST_DETAILS: relative viability vs DMSO control (72 h) (fraction); higher = more viable cells
APPLIED_CONDITIONS: 1.111 µM
// relative viability lookup, one value per entry
The answer should be a number; do not append a unit.

C1=N/C2=N/c3ccc(OCCN4CCCC4)c(c3)COC/C=C/COCc3cccc(c3)C(=C1)N2 | 0.244
Cc1c(F)cc(C(=O)NC2CC2)cc1-c1ccc(C(=O)NCC(C)(C)C)cn1 | 0.852
CO[C@H]1C[C@@H]2CC[C@@H](C)[C@@](O)(O2)C(=O)C(=O)N2CCCC[C@H]2C(=O)O[C@H]([C@H](C)C[C@@H]2CC[C@@H](O)[C@H](OC)C2)CC(=O)[C@H](C)/C=C(\C)[C@@H](O)[C@@H](OC)C(=O)[C@H](C)C[C@H](C)/C=C/C=C/C=C/1C | 0.706

So what's the measured relative viability for this one? Cc1ccc(C(=O)OCc2ccc([C@@H](CN)C(=O)Nc3ccc4cnccc4c3)cc2)c(C)c1
0.691

So what's the measured relative viability for this one? Cc1cn(-c2cc(NC(=O)c3ccc(C)c(Nc4nccc(-c5cnccn5)n4)c3)cc(C(F)(F)F)c2)cn1
0.802

So what's the measured relative viability for this one? NC(=O)c1cccc2cn(-c3ccc([C@@H]4CCCNC4)cc3)nc12
0.664

So what's the measured relative viability for this one? Cc1ccc(NC(=O)c2ccc(CN3CCN(C)CC3)cc2)cc1Nc1nccc(-c2cccnc2)n1
0.704

---

// relative viability lookup, one value per entry
System: MES-SA
TEST_DETAILS: relative viability vs DMSO control (72 h) (fraction); higher = more viable cells
APPLIED_CONDITIONS: 0.3704 µM
The answer should be a number; do not append a unit.

In the examples that follow, each entry is paired with its recorded relative viability.
FC(F)(F)c1ccc(CNc2ccc(Cc3c[nH]c4ncc(Cl)cc34)cn2)cn1 | 0.883
C1=N/C2=N/c3ccc(OCCN4CCCC4)c(c3)COC/C=C/COCc3cccc(c3)C(=C1)N2 | 0.794
COc1cc2ncnc(Nc3cccc(Cl)c3F)c2cc1OC(=O)N1CCN(C)C[C@H]1C | 0.891
Cc1cn(-c2cc(NC(=O)c3ccc(C)c(Nc4nccc(-c5cccnc5)n4)c3)cc(C(F)(F)F)c2)cn1 | 0.93
COc1cc2c(Oc3ccc4[nH]c(C)cc4c3F)ccnc2cc1OCC1(N)CC1 | 0.951
C=CC(=O)Nc1cccc(Nc2nc(Nc3ccc(N4CCN(C(C)=O)CC4)cc3OC)ncc2C(F)(F)F)c1 | 0.938
N#CCC1(n2cc(-c3ncnc4[nH]ccc34)cn2)CN(C2CCN(C(=O)c3ccnc(C(F)(F)F)c3F)CC2)C1 | 0.886

Shift focus to the following entry.
So what's the measured relative viability for this one? COc1cc2nccc(Oc3ccc(NC(=O)C4(C(=O)Nc5ccc(F)cc5)CC4)cc3)c2cc1OC [Cabozantinib]
0.89

---

Test system: KHOS-240S
TEST_DETAILS: relative viability vs DMSO control (72 h) (fraction); higher = more viable cells
APPLIED_CONDITIONS: 3.333 µM
PROPERTY_LABEL: relative viability
The answer should be a number; do not append a unit.

In the examples that follow, each entry is paired with its recorded relative viability.
CO[C@@H]1[C@H](N(C)C(=O)c2ccccc2)C[C@H]2O[C@]1(C)n1c3ccccc3c3c4c(c5c6ccccc6n2c5c31)C(=O)NC4 | 0.143
C[C@@H]1COC(Nc2ccc3ncnc(Nc4ccc(OCc5nccs5)c(Cl)c4)c3c2)=N1 | 0.947
N#Cc1ccnc(N2C(=O)CC[C@H]2C(=O)N(c2cncc(F)c2)[C@H](C(=O)NC2CC(F)(F)C2)c2ccccc2Cl)c1 | 1.02
CC[C@@H]1C(=O)N(C)c2cnc(Nc3ccc(C(=O)N[C@H]4CC[C@H](N5CCN(CC6CC6)CC5)CC4)cc3OC)nc2N1C(C)C | 0.122
Cc1cccc(-c2[nH]c(CNc3ccccc3F)nc2-c2ccc3ncnn3c2)n1 | 0.885

Shift focus to the following entry.
So what's the measured relative viability for this one? Cc1ccc(NC(=O)c2ccc(CN3CCN(C)CC3)cc2)cc1Nc1nccc(-c2cccnc2)n1
0.794

---

Test system: RD
TEST_DETAILS: relative viability vs DMSO control (72 h) (fraction); higher = more viable cells
APPLIED_CONDITIONS: 0.00457 µM
Mark each entry rule met if its relative viability sits below 1, and rule not met for all others.

Solved cases below.
COc1cc2ncnc(Nc3ccc(F)c(Cl)c3)c2cc1NC(=O)/C=C/CN1CCCCC1 | rule not met
CCCS(=O)(=O)N[C@H]1C[C@@H](N(C)c2ncnc3[nH]ccc23)C1 | rule not met
Cc1ccc(NC(=O)c2ccc(CN3CCN(C)CC3)cc2)cc1Nc1nccc(-c2cccnc2)n1 | rule met

In plain terms, does C[C@H]1Oc2cc(cnc2N)-c2c(nn(C)c2C#N)CN(C)C(=O)c2ccc(F)cc21 come in under 1 for relative viability?
rule not met

In plain terms, does NC(=O)c1cccc2cn(-c3ccc([C@@H]4CCCNC4)cc3)nc12 come in under 1 for relative viability?
rule not met

In plain terms, does C1=N/C2=N/c3ccc(OCCN4CCCC4)c(c3)COC/C=C/COCc3cccc(c3)C(=C1)N2 come in under 1 for relative viability?
rule not met
